Listed here are compounds together with their documented relative viability.
Tested on: NCI-H1944
assayOverview: relative viability (nuclei count vs DMSO), 5 days (fraction); higher = more cells survive
experimentalConditions: first compound 0.03162 µM
Answer with a bare number; do not write a unit.

# compound, reportedMeasurement
rows = [
    ("CCN(CC)CCCCNc1ncc2cc(-c3cc(OC)cc(OC)c3)c(NC(=O)NC(C)(C)C)nc2n1 + COc1cc2c(Oc3ccc(NC(=O)C4(C(=O)Nc5ccc(F)cc5)CC4)cc3F)ccnc2cc1OCCCN1CCOCC1 [Foretinib] (partner 0.25 µM)", 0.873),
]

Exam item: Reported relative viability for O=c1cc(N2CCOCC2)oc2c(-c3cccc4c3sc3ccccc34)cccc12 + C[C@]1(O)C[C@@H](c2nc(-c3ccc4ccc(-c5ccccc5)nc4c3)c3c(N)nccn32)C1 [Linsitinib] (partner 1 µM) : what is it?
Marked response: 1.19

###

Listed here are compounds together with their documented relative viability.
System: BEN
assayOverview: relative viability (nuclei count vs DMSO), 5 days (fraction); higher = more cells survive
experimentalConditions: first compound 0.01 µM
Answer with a bare number; do not write a unit.

Take a look at these entries with their results.
# compound, relative viability
rows = [
    ("CCN(CC)CCCCNc1ncc2cc(-c3cc(OC)cc(OC)c3)c(NC(=O)NC(C)(C)C)nc2n1 + Cc1cc(Nc2cc(N3CCN(C)CC3)nc(Sc3ccc(NC(=O)C4CC4)cc3)n2)n[nH]1 [Tozasertib] (partner 0.1 µM)", 0.371),
    ("O=c1cc(N2CCOCC2)oc2c(-c3cccc4c3sc3ccccc34)cccc12 + C[C@]1(O)C[C@@H](c2nc(-c3ccc4ccc(-c5ccccc5)nc4c3)c3c(N)nccn32)C1 [Linsitinib] (partner 1 µM)", 0.887),
    ("CCN(CC)CCCCNc1ncc2cc(-c3cc(OC)cc(OC)c3)c(NC(=O)NC(C)(C)C)nc2n1 + Nc1nc2[nH]cc(CCc3ccc(C(=O)N[C@@H](CCC(=O)O)C(=O)O)cc3)c2c(=O)[nH]1 [Pemetrexed] (partner 0.2 µM)", 0.664),
]

Let's switch to this compound now.
Exam item: Reported relative viability for CCN(CC)CCCCNc1ncc2cc(-c3cc(OC)cc(OC)c3)c(NC(=O)NC(C)(C)C)nc2n1 + CC1(C)CCC(c2ccc(Cl)cc2)=C(CN2CCN(c3ccc(C(=O)NS(=O)(=O)c4ccc(N[C@H](CCN5CCOCC5)CSc5ccccc5)c(S(=O)(=O)C(F)(F)F)c4)cc3)CC2)C1 [Navitoclax] (partner 0.5 µM) : what is it?
Marked response: 0.0624

###

Listed here are compounds together with their documented relative viability.
System: SW 900
assayOverview: relative viability (nuclei count vs DMSO), 5 days (fraction); higher = more cells survive
experimentalConditions: first compound 0.3162 µM
Answer with a bare number; do not write a unit.

Take a look at these entries with their results.
# compound, relative viability
rows = [
    ("CCN(CC)CCCCNc1ncc2cc(-c3cc(OC)cc(OC)c3)c(NC(=O)NC(C)(C)C)nc2n1 + Nc1ncn([C@H]2C[C@H](O)[C@@H](CO)O2)c(=O)n1 [Decitabine] (partner 2 µM)", 0.416),
    ("O=c1cc(N2CCOCC2)oc2c(-c3cccc4c3sc3ccccc34)cccc12 + NC(=O)Nc1cc(-c2cccc(F)c2)sc1C(=O)N[C@H]1CCCNC1 [AZD7762] (partner 0.2 µM)", 0.702),
    ("O=c1cc(N2CCOCC2)oc2c(-c3cccc4c3sc3ccccc34)cccc12 + COc1cc2c(Oc3ccc(NC(=O)C4(C(=O)Nc5ccc(F)cc5)CC4)cc3F)ccnc2cc1OCCCN1CCOCC1 [Foretinib] (partner 0.25 µM)", 0.798),
    ("CCN(CC)CCCCNc1ncc2cc(-c3cc(OC)cc(OC)c3)c(NC(=O)NC(C)(C)C)nc2n1 + Cc1cc(Nc2cc(N3CCN(C)CC3)nc(Sc3ccc(NC(=O)C4CC4)cc3)n2)n[nH]1 [Tozasertib] (partner 0.1 µM)", 0.451),
    ("O=c1cc(N2CCOCC2)oc2c(-c3cccc4c3sc3ccccc34)cccc12 + O=C(c1cc(Cc2n[nH]c(=O)c3ccccc23)ccc1F)N1CCN(C(=O)C2CC2)CC1 [Olaparib] (partner 8 µM)", 0.719),
]

Exam item: Hi! What's the reported relative viability for O=c1cc(N2CCOCC2)oc2c(-c3cccc4c3sc3ccccc34)cccc12 + N=C(N)NC(=N)NCCc1ccccc1 [Phenformin] (partner 250 µM) on SW 900?
Marked response: 0.551

Exam item: Hi! What's the reported relative viability for CCN(CC)CCCCNc1ncc2cc(-c3cc(OC)cc(OC)c3)c(NC(=O)NC(C)(C)C)nc2n1 + O=C(CCCCCCC(=O)Nc1ccccc1)NO [Vorinostat] (partner 1 µM) on SW 900?
Marked response: 0.412

Exam item: Hi! What's the reported relative viability for O=c1cc(N2CCOCC2)oc2c(-c3cccc4c3sc3ccccc34)cccc12 + CC(=O)Nc1cccc(-n2c(=O)n(C3CC3)c(=O)c3c(Nc4ccc(I)cc4F)n(C)c(=O)c(C)c32)c1 [Trametinib] (partner 0.02 µM) on SW 900?
Marked response: 0.858

###

Listed here are compounds together with their documented relative viability.
Test system: NCI-H1793
assayOverview: relative viability (nuclei count vs DMSO), 5 days (fraction); higher = more cells survive
experimentalConditions: first compound 0.1 µM
Answer with a bare number; do not write a unit.

Take a look at these entries with their results.
# compound, assayedTarget, relative viability
rows = [
    ("CCN(CC)CCCCNc1ncc2cc(-c3cc(OC)cc(OC)c3)c(NC(=O)NC(C)(C)C)nc2n1 + N=C(N)NC(=N)NCCc1ccccc1 [Phenformin] (partner 250 µM)", "NCI-H1793", 0.353),
    ("CCN(CC)CCCCNc1ncc2cc(-c3cc(OC)cc(OC)c3)c(NC(=O)NC(C)(C)C)nc2n1 + CC(=O)Nc1cccc(-n2c(=O)n(C3CC3)c(=O)c3c(Nc4ccc(I)cc4F)n(C)c(=O)c(C)c32)c1 [Trametinib] (partner 0.02 µM)", "NCI-H1793", 0.422),
    ("O=c1cc(N2CCOCC2)oc2c(-c3cccc4c3sc3ccccc34)cccc12 + CC(=O)Nc1cccc(-n2c(=O)n(C3CC3)c(=O)c3c(Nc4ccc(I)cc4F)n(C)c(=O)c(C)c32)c1 [Trametinib] (partner 0.02 µM)", "NCI-H1793", 0.504),
]

Exam item: Reported relative viability for CCN(CC)CCCCNc1ncc2cc(-c3cc(OC)cc(OC)c3)c(NC(=O)NC(C)(C)C)nc2n1 + Cc1nc(Nc2ncc(C(=O)Nc3c(C)cccc3Cl)s2)cc(N2CCN(CCO)CC2)n1 [Dasatinib] (partner 0.075 µM) : what is it?
Marked response: 0.372

###

Tested on: NCI-H2342
assayOverview: relative viability (nuclei count vs DMSO), 5 days (fraction); higher = more cells survive
experimentalConditions: first compound 0.1 µM
Listed here are compounds together with their documented relative viability.

Take a look at these entries with their results.
# compound, metric, reportedMeasurement
rows = [
    ("O=c1cc(N2CCOCC2)oc2c(-c3cccc4c3sc3ccccc34)cccc12 + Nc1ncn([C@H]2C[C@H](O)[C@@H](CO)O2)c(=O)n1 [Decitabine] (partner 2 µM)", "relative viability", 0.774),
    ("O=c1cc(N2CCOCC2)oc2c(-c3cccc4c3sc3ccccc34)cccc12 + Cc1cc(Nc2cc(N3CCN(C)CC3)nc(Sc3ccc(NC(=O)C4CC4)cc3)n2)n[nH]1 [Tozasertib] (partner 0.1 µM)", "relative viability", 0.535),
    ("O=c1cc(N2CCOCC2)oc2c(-c3cccc4c3sc3ccccc34)cccc12 + O=C(CCCCCCC(=O)Nc1ccccc1)NO [Vorinostat] (partner 1 µM)", "relative viability", 0.748),
    ("CCN(CC)CCCCNc1ncc2cc(-c3cc(OC)cc(OC)c3)c(NC(=O)NC(C)(C)C)nc2n1 + Cc1nc(Nc2ncc(C(=O)Nc3c(C)cccc3Cl)s2)cc(N2CCN(CCO)CC2)n1 [Dasatinib] (partner 0.075 µM)", "relative viability", 0.321),
    ("CCN(CC)CCCCNc1ncc2cc(-c3cc(OC)cc(OC)c3)c(NC(=O)NC(C)(C)C)nc2n1 + CC(=O)c1c(C)c2cnc(Nc3ccc(N4CCNCC4)cn3)nc2n(C2CCCC2)c1=O [Palbociclib] (partner 0.5 µM)", "relative viability", 0.528),
]

Exam item: Reported relative viability for CCN(CC)CCCCNc1ncc2cc(-c3cc(OC)cc(OC)c3)c(NC(=O)NC(C)(C)C)nc2n1 + CC(=O)Nc1cccc(-n2c(=O)n(C3CC3)c(=O)c3c(Nc4ccc(I)cc4F)n(C)c(=O)c(C)c32)c1 [Trametinib] (partner 0.02 µM) : what is it?
Marked response: 0.815
